# TEST DESCRIPTION: activity coefficient (dimensionless); of the first substance listed, at infinite dilution; xn = mol fraction of the nth substance listed
# CONDITION DESCRIPTION: 343.15 K; Liquid; Chromatography; x1 = 0
Assign class 1 whenever activity coefficient does not fall below 1; assign class 0 whenever it does.

C#CCCCCC [1-heptyne] + CN(C)c1cc[n+](COCCCOC[n+]2ccc(N(C)C)cc2)cc1.O=S(=O)([N-]S(=O)(=O)C(F)(F)F)C(F)(F)F.O=S(=O)([N-]S(=O)(=O)C(F)(F)F)C(F)(F)F; class 1
CC#N [acetonitrile] + CCCOC[n+]1ccn(C)c1.F[B-](F)(F)F; class 0
CCCC(C)=O [pentan-2-one] + Cn1cc[n+](COCCCOC[n+]2ccn(C)c2)c1.O=S(=O)([N-]S(=O)(=O)C(F)(F)F)C(F)(F)F.O=S(=O)([N-]S(=O)(=O)C(F)(F)F)C(F)(F)F; class 0

activity coefficient >= 1 for CCCCCCCC [octane] + CCCCCCCCn1cc[n+](COCCCOC[n+]2ccn(CCCCCCCC)c2C)c1C.O=S(=O)([N-]S(=O)(=O)C(F)(F)F)C(F)(F)F.O=S(=O)([N-]S(=O)(=O)C(F)(F)F)C(F)(F)F ? class 1

Does the reported activity coefficient for c1ccccc1 [benzene] + CCCCCCCCn1cc[n+](COCCCOC[n+]2ccn(CCCCCCCC)c2C)c1C.N#C[N-]C#N.N#C[N-]C#N fall at or above the 1 mark? class 0

Is activity coefficient for CC#N [acetonitrile] + CCCCCCCCn1cc[n+](COCCC)c1C.N#C[N-]C#N at or above 1? class 0

====

# TEST DESCRIPTION: activity coefficient (dimensionless); of the first substance listed, at infinite dilution; xn = mol fraction of the nth substance listed
# CONDITION DESCRIPTION: 323.15 K; Liquid; Chromatography; x1 = 0
Reported activity coefficient by item:
Give the figure by itself; no unit, no explanation.

CC(C)OC(C)C [diisopropyl ether] + CCCOC[n+]1ccn(Cc2ccccc2)c1.N#C[N-]C#N; 12.8
CCCCCC [hexane] + CN(C)c1cc[n+](COCCCOC[n+]2ccc(N(C)C)cc2)cc1.O=S(=O)([N-]S(=O)(=O)C(F)(F)F)C(F)(F)F.O=S(=O)([N-]S(=O)(=O)C(F)(F)F)C(F)(F)F; 7.4
ClC(Cl)(Cl)Cl [tetrachloromethane] + CCCCCCCCn1cc[n+](COCCC)c1C.N#C[N-]C#N; 1.21
CCCCCC [hexane] + CCCOC[n+]1ccn(Cc2ccccc2)c1.N#C[N-]C#N; 32.4

Would you kindly share the measured activity coefficient for C1CCCCC1 [cyclohexane] + CCCOC[n+]1ccn(Cc2ccccc2)c1.O=S(=O)([N-]S(=O)(=O)C(F)(F)F)C(F)(F)F ? 4.98

Give the measured activity coefficient of CC#N [acetonitrile] + CCCOC[n+]1ccn(Cc2ccccc2)c1.N#C[N-]C#N . 0.72

Return reported activity coefficient; argument: CCN(CC)CC [triethylamine] + CCCCCCCCn1cc[n+](COCCC)c1C.O=S(=O)([N-]S(=O)(=O)C(F)(F)F)C(F)(F)F 1.2

====

# TEST DESCRIPTION: activity coefficient (dimensionless); of the first substance listed, at infinite dilution; xn = mol fraction of the nth substance listed
# CONDITION DESCRIPTION: 323.15 K; Liquid; Chromatography; x1 = 0
ENDPOINT LABEL: activity coefficient
Reply: number alone, nothing else.

CCCCCCCCCC [decane] + CCCOC[n+]1ccn(C)c1.F[B-](F)(F)F; 635
CO [methanol] + CCCOC[n+]1ccn(Cc2ccccc2)c1.F[B-](F)(F)F; 1.13
c1ccccc1 [benzene] + CCCOC[n+]1ccn(Cc2ccccc2)c1.N#C[N-]C#N; 1.51

Next up:
For the compound C1CCCCCC1 [cycloheptane] + CN(C)c1cc[n+](COCCCOC[n+]2ccc(N(C)C)cc2)cc1.O=S(=O)([N-]S(=O)(=O)C(F)(F)F)C(F)(F)F.O=S(=O)([N-]S(=O)(=O)C(F)(F)F)C(F)(F)F , what activity coefficient is on record? 27

====

# TEST DESCRIPTION: activity coefficient (dimensionless); of the first substance listed, at infinite dilution; xn = mol fraction of the nth substance listed
# CONDITION DESCRIPTION: 323.15 K; Liquid; Chromatography; x1 = 0
ENDPOINT LABEL: activity coefficient
Note: the reply should be a number with no unit written.

// known answers, use as guide
CCC[N+](=O)[O-] [1-nitropropane] + CCCCCCCCn1cc[n+](COCCCOC[n+]2ccn(CCCCCCCC)c2C)c1C.N#C[N-]C#N.N#C[N-]C#N; 0.59
ClCCl [dichloromethane] + CCCOC[n+]1ccn(C)c1.F[B-](F)(F)F; 1.07
ClC(Cl)(Cl)Cl [tetrachloromethane] + CCCOC[n+]1ccn(Cc2ccccc2)c1.F[B-](F)(F)F; 5.01
ClCCl [dichloromethane] + CCCOC[n+]1ccn(Cc2ccccc2)c1.N#C[N-]C#N; 0.58
CCCO [propan-1-ol] + CCCOC[n+]1ccn(C)c1.N#C[N-]C#N; 0.97
CCCCCCCC [octane] + CCCOC[n+]1ccn(C)c1.F[B-](F)(F)F; 292

Find the recorded activity coefficient belonging to CCCCCCCCCCCC [dodecane] + CCCCCCCCn1cc[n+](COCCCOC[n+]2ccn(CCCCCCCC)c2C)c1C.O=S(=O)([N-]S(=O)(=O)C(F)(F)F)C(F)(F)F.O=S(=O)([N-]S(=O)(=O)C(F)(F)F)C(F)(F)F and report it. 15.4

====

# TEST DESCRIPTION: activity coefficient (dimensionless); of the first substance listed, at infinite dilution; xn = mol fraction of the nth substance listed
# CONDITION DESCRIPTION: 343.15 K; Liquid; Chromatography; x1 = 0
ENDPOINT LABEL: activity coefficient
API doc: respond with a numeric literal and nothing else, no unit.

Before answering, review these 3 worked examples.
CCCCCCCCCCC [undecane] + CCCCCCCCn1cc[n+](COCCC)c1C.O=S(=O)([N-]S(=O)(=O)C(F)(F)F)C(F)(F)F; 9.8
Cc1ccccc1C [1,2-dimethylbenzene] + CN(C)c1cc[n+](COCCCOC[n+]2ccc(N(C)C)cc2)cc1.O=S(=O)([N-]S(=O)(=O)C(F)(F)F)C(F)(F)F.O=S(=O)([N-]S(=O)(=O)C(F)(F)F)C(F)(F)F; 1.22
ClC(Cl)Cl [trichloromethane] + CCCOC[n+]1ccn(Cc2ccccc2)c1.O=S(=O)([N-]S(=O)(=O)C(F)(F)F)C(F)(F)F; 0.66

For the molecule c1ccsc1 [thiophene] + N#C[N-]C#N.N#C[N-]C#N.c1ccc(Cn2cc[n+](COCCCOC[n+]3ccn(Cc4ccccc4)c3)c2)cc1 , what activity coefficient is on record? 1.67

// activity coefficient lookup, key: CCC(=O)CC [pentan-3-one] + CCCOC[n+]1ccn(C)c1.O=S(=O)([N-]S(=O)(=O)C(F)(F)F)C(F)(F)F 0.72

Endpoint output: activity coefficient of CCO [ethanol] + Cn1cc[n+](COCCCOC[n+]2ccn(C)c2)c1.N#C[N-]C#N.N#C[N-]C#N . Value? 0.72

====

# TEST DESCRIPTION: activity coefficient (dimensionless); of the first substance listed, at infinite dilution; xn = mol fraction of the nth substance listed
# CONDITION DESCRIPTION: 323.15 K; Liquid; Chromatography; x1 = 0
ENDPOINT LABEL: activity coefficient
Write the number on its own, no unit after it.

CC1CCCCC1 [methylcyclohexane] + Cn1cc[n+](COCCCOC[n+]2ccn(C)c2)c1.O=S(=O)([N-]S(=O)(=O)C(F)(F)F)C(F)(F)F.O=S(=O)([N-]S(=O)(=O)C(F)(F)F)C(F)(F)F; 21

What does the record list as activity coefficient for C1CCCCC1 [cyclohexane] + CCCOC[n+]1ccn(Cc2ccccc2)c1.N#C[N-]C#N ? 13.1

Please look up its activity coefficient: CCCO [propan-1-ol] + N#C[N-]C#N.N#C[N-]C#N.c1ccc(Cn2cc[n+](COCCCOC[n+]3ccn(Cc4ccccc4)c3)c2)cc1 1.24

Reported activity coefficient for C1COCCO1 [1,4-dioxane] + CCCOC[n+]1ccn(Cc2ccccc2)c1.N#C[N-]C#N : what is it? 0.84

I'd like to know its activity coefficient. The molecule in question is CCO [ethanol] + CN(C)c1cc[n+](COCCCOC[n+]2ccc(N(C)C)cc2)cc1.O=S(=O)([N-]S(=O)(=O)C(F)(F)F)C(F)(F)F.O=S(=O)([N-]S(=O)(=O)C(F)(F)F)C(F)(F)F 1.21

// lookup activity coefficient for CCCCCCCCC [nonane] + N#C[N-]C#N.N#C[N-]C#N.c1ccc(Cn2cc[n+](COCCCOC[n+]3ccn(Cc4ccccc4)c3)c2)cc1 335

Dear colleague, I am looking for the recorded activity coefficient of the following molecule: C1COCCO1 [1,4-dioxane] + CCCOC[n+]1ccn(C)c1.O=S(=O)([N-]S(=O)(=O)C(F)(F)F)C(F)(F)F 0.57

Fill in: activity coefficient of CCCCCCC [heptane] + CCCCCCCCn1cc[n+](COCCC)c1C.N#C[N-]C#N is ___ 8.88

GET /values?readout=activity coefficient&item= CCC(C)=O [butanone] + N#C[N-]C#N.N#C[N-]C#N.c1ccc(Cn2cc[n+](COCCCOC[n+]3ccn(Cc4ccccc4)c3)c2)cc1 1.78

Item c1ccsc1 [thiophene] + CCCOC[n+]1ccn(C)c1.F[B-](F)(F)F has what recorded activity coefficient? 2.26

What activity coefficient value was documented for this molecule, C1CCCCC1 [cyclohexane] + CCCOC[n+]1ccc(N(C)C)cc1.O=S(=O)([N-]S(=O)(=O)C(F)(F)F)C(F)(F)F ? 7.06

Would you mind telling me what activity coefficient value was observed for CCC[N+](=O)[O-] [1-nitropropane] + CCCOC[n+]1ccn(Cc2ccccc2)c1.N#C[N-]C#N ? 1.04

GET /values?readout=activity coefficient&item= CCCCCCCCCCCCC [tridecane] + CCCOC[n+]1ccn(C)c1.O=S(=O)([N-]S(=O)(=O)C(F)(F)F)C(F)(F)F 201

What value of activity coefficient has been reported for the following molecule? ClCCl [dichloromethane] + Cn1cc[n+](COCCCOC[n+]2ccn(C)c2)c1.O=S(=O)([N-]S(=O)(=O)C(F)(F)F)C(F)(F)F.O=S(=O)([N-]S(=O)(=O)C(F)(F)F)C(F)(F)F 0.55

What value of activity coefficient has been recorded for this entry: CCCCCCCCC [nonane] + CCCOC[n+]1ccc(N(C)C)cc1.O=S(=O)([N-]S(=O)(=O)C(F)(F)F)C(F)(F)F 32.8

Look up activity coefficient: CCC(C)CC [3-methylpentane] + CCCOC[n+]1ccn(Cc2ccccc2)c1.O=S(=O)([N-]S(=O)(=O)C(F)(F)F)C(F)(F)F 8.01

Fill blank: measured activity coefficient of the molecule CCCCCCC [heptane] + CCCCCCCCn1cc[n+](COCCCOC[n+]2ccn(CCCCCCCC)c2C)c1C.N#C[N-]C#N.N#C[N-]C#N is ____. 11.6

activity coefficient lookup needed for CCCCCCCCCCCC [dodecane] + CN(C)c1cc[n+](COCCCOC[n+]2ccc(N(C)C)cc2)cc1.O=S(=O)([N-]S(=O)(=O)C(F)(F)F)C(F)(F)F.O=S(=O)([N-]S(=O)(=O)C(F)(F)F)C(F)(F)F , thanks. 156

Which activity coefficient value is on record for Cc1ccc(C)cc1 [1,4-dimethylbenzene] + CCCCCCCCn1cc[n+](COCCCOC[n+]2ccn(CCCCCCCC)c2C)c1C.O=S(=O)([N-]S(=O)(=O)C(F)(F)F)C(F)(F)F.O=S(=O)([N-]S(=O)(=O)C(F)(F)F)C(F)(F)F ? 0.75

Reported activity coefficient for CC(C)O [propan-2-ol] + N#C[N-]C#N.N#C[N-]C#N.c1ccc(Cn2cc[n+](COCCCOC[n+]3ccn(Cc4ccccc4)c3)c2)cc1 : what is it? 1.57

This collection of values is drawn from the NIST ThermoML archive (doi:10.1016/j.fluid.2014.11.020).
